experiment: Particle size and polydispersity index of nanoparticle compositions (Zetasizer Nano ZS); assay type: physicochemical; details: Table 1b
Decide using Size (nm): a value greater than or equal to 80 nm is y, a smaller one is n.

molecule="CCCCCCCCCN(CCCC(=O)OCCCCC)CCC1CCN(C(=O)CN(CCCCCCCCC)CCN(CCCCCCCCC)CCCCCCCCC)C1 (stereo not drawn) [Compound 81]" labelvalue=n
molecule="CCCCCCCCCN(CCCCCCC(=O)OCC)CCC1CCN(C(=O)CN(CCCCCCCCC)CCN(CCCCCCCCC)CCCCCCCCC)CC1 [Compound 58]" labelvalue=y
molecule="CCCCCCCCCN(CCCC(=O)OCCCCC)CCN(CCCCCCCCC)CC(=O)N1CCN(C(=O)CN(CCCCCCCCC)CCCC(=O)OCCCCC)CC1 [Compound 71]" labelvalue=y
molecule="CCCCCCCCCN(CCCCCCCC(=O)OC)CCC1CCN(C(=O)CN(CCCCCCCCC)CCN(CCCCCCCCC)CCCCCCCCC)CC1 [Compound 57]" labelvalue=y

Ask | Does CCCCCCCCCN(CCCOC(=O)CCCCC)CCC1CCN(C(=O)CN(CCCCCCCCC)CCN(CCCCCCCCC)CCCCCCCCC)CC1 [Compound 61] have a reported Size (nm) of at least 80 nm?
Reply | y
